Biological target: AAK1 (Homo sapiens)
Sequence (Q2M2I8 whole entry): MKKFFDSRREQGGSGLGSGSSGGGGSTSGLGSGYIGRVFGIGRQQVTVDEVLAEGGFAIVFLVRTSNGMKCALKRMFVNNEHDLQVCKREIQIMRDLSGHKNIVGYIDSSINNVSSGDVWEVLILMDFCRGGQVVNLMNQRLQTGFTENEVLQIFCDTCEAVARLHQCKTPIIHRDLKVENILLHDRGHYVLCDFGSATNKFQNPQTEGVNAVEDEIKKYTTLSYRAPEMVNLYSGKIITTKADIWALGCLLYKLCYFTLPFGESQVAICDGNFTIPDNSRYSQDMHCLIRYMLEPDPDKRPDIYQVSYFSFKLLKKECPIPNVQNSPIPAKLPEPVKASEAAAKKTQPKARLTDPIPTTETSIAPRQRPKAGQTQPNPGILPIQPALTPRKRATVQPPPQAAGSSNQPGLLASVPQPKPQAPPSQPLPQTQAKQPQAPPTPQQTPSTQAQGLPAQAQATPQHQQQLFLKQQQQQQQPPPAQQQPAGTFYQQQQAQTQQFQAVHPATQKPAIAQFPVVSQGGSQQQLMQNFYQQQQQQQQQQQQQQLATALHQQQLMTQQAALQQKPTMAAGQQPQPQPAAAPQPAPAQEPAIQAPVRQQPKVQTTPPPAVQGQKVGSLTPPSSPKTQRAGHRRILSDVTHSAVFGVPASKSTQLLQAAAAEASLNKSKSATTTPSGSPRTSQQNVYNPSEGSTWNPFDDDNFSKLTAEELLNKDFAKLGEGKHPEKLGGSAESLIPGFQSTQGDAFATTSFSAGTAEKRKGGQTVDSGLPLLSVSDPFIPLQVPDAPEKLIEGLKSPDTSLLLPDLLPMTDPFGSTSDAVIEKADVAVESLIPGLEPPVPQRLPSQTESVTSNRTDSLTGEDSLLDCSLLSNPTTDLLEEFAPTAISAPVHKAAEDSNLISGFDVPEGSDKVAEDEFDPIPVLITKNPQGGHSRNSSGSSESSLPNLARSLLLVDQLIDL
Experiment: pAP2M1 cell-based assay (in-cell Western)
Settings: Hela cells co-transfected with AP2M1 and AAK1, 3 hr treatment; class symbols; read-out: AAK1 In-cell Western: IC50
Source text: pAP2M1 Cell-Based Assay (in-Cell Western): The plate was read on Licor Odyssey CLx imaging system (LICOR) to acquire fluorescence intensity at 700 channel and 800 channel. Data analysis: Fluorescence intensity at 700 channel served as internal standard and 800 channel were normalized with 700 channel.
MEASUREMENT LABEL: IC50

Request the reported IC50 associated with COC(=O)N1CC(Oc2ncccc2-c2cnn3ccc(N4CCN(C(=O)O[C@@H]5CNC(=O)C5)CC4)nc23)C1
501 to 1500 nM

Request the reported IC50 associated with COC(=O)N1CC(Oc2ncccc2-c2cnn3ccc(N4CCN(C(=O)O[C@@H]5CC(=O)N(C6COC6)C5)CC4)nc23)C1
> 1500 nM

Request the reported IC50 associated with COC(=O)N1CC(Oc2ncccc2-c2cnn3ccc(NCCN(C)C(=O)OC(C)(C)C)nc23)C1
51 to 150 nM

Request the reported IC50 associated with CN(CCNc1ccn2ncc(-c3cccnc3OC3CN(C(=O)OC(C)(C)C)C3)c2n1)C(=O)OC(C)(C)C
> 1500 nM

Request the reported IC50 associated with CN1CC(Oc2ncccc2-c2cnn3ccc(N4CCN(C(=O)O[C@@H]5CNC(=O)C5)CC4)nc23)C1
> 1500 nM

Request the reported IC50 associated with COc1cn2ncc(-c3cccnc3OC3CC3)c2nc1N1CCN(C(=O)O[C@H]2CC(=O)N(C)C2)CC1
> 1500 nM

Request the reported IC50 associated with C#CC1(OC(=O)N2CCN(c3ccn4ncc(-c5cccnc5OC5CC5)c4n3)CC2)CCNC1 (stereo not shown)
1 to 50 nM

###

Molecular target: GAK (amino acids Q25-N335) (Homo sapiens, UniProt O14976)
Construct: against GAK (amino acids Q25-N335); 6His (N, cleaved yes)
Sequence (O14976 25-335): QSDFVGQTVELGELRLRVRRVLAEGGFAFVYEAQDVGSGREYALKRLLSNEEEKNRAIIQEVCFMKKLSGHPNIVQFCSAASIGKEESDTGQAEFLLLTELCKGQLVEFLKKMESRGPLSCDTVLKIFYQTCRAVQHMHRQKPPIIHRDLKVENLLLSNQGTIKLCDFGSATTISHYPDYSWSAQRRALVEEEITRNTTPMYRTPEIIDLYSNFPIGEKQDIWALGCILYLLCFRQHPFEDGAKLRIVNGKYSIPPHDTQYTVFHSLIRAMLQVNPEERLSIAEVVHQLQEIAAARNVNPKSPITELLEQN
Assay: GAK pSENs assay
Format: biochemical
Would you mind telling me the reported IC50 of each entry?

Hello, I am looking for reported IC50 with GAK (amino acids Q25-N335) (Homo sapiens, UniProt O14976) for COc1ncccc1-c1cnn2ccc(N3CCN(C(=O)OC(C)C)CC3)nc12 [LP-935509] . Could you help?
0.72 µM

Hello, I am looking for reported IC50 with GAK (amino acids Q25-N335) (Homo sapiens, UniProt O14976) for Brc1cnn2ccc(N3CCNCC3)nc12 [Compound I-103] . Could you help?
> 1.5 µM

Hello, I am looking for reported IC50 with GAK (amino acids Q25-N335) (Homo sapiens, UniProt O14976) for CN1C[C@H](OC(=O)N2CCN(c3ccn4ncc(-c5cccnc5OC5CC5)c4n3)CC2)CC1=O [Compound I-94] . Could you help?
> 1.5 µM

Hello, I am looking for reported IC50 with GAK (amino acids Q25-N335) (Homo sapiens, UniProt O14976) for c1cc2nc(N3CCNCC3)ccn2n1 [Compound I-105] . Could you help?
> 1.5 µM
